Where do these numbers come from? They come from the supplement of paper PMC10307832.

Assign relative viability to each entry below.
# Test system: EPLC-272H
# method description: relative viability (nuclei count vs DMSO), 5 days (fraction); higher = more cells survive
# test settings: first compound 0.6325 µM
Give bare numbers.

These recorded examples may help you get a feel for the data.
1. CN1CCN(CCOc2cc(OC3CCOCC3)c3c(Nc4c(Cl)ccc5c4OCO5)ncnc3c2)CC1 [Saracatinib] + CS(=O)(=O)N1CCN(Cc2cc3nc(-c4cccc5[nH]ncc45)nc(N4CCOCC4)c3s2)CC1 [Pictilisib] (partner 1 µM); 0.388
2. CN1CCN(CCOc2cc(OC3CCOCC3)c3c(Nc4c(Cl)ccc5c4OCO5)ncnc3c2)CC1 [Saracatinib] + Cc1nc(Nc2ncc(C(=O)Nc3c(C)cccc3Cl)s2)cc(N2CCN(CCO)CC2)n1 [Dasatinib] (partner 0.075 µM); 0.375
3. Cc1csc(=NC2CCCCC2)n1/N=C/c1ccc(O)c(O)c1O [MIM1] + COc1cc2c(Oc3ccc(NC(=O)C4(C(=O)Nc5ccc(F)cc5)CC4)cc3F)ccnc2cc1OCCCN1CCOCC1 [Foretinib] (partner 0.25 µM); 0.724
4. CN1CCN(CCOc2cc(OC3CCOCC3)c3c(Nc4c(Cl)ccc5c4OCO5)ncnc3c2)CC1 [Saracatinib] + C[C@]1(O)C[C@@H](c2nc(-c3ccc4ccc(-c5ccccc5)nc4c3)c3c(N)nccn32)C1 [Linsitinib] (partner 1 µM); 1.12
5. Cc1csc(=NC2CCCCC2)n1/N=C/c1ccc(O)c(O)c1O [MIM1] + N=C(N)NC(=N)NCCc1ccccc1 [Phenformin] (partner 250 µM); 0.273

Hi there! I need relative viability for each item below, if you can.
1. Cc1csc(=NC2CCCCC2)n1/N=C/c1ccc(O)c(O)c1O [MIM1] + CC(=O)Nc1cccc(-n2c(=O)n(C3CC3)c(=O)c3c(Nc4ccc(I)cc4F)n(C)c(=O)c(C)c32)c1 [Trametinib] (partner 0.02 µM)
2. CN1CCN(CCOc2cc(OC3CCOCC3)c3c(Nc4c(Cl)ccc5c4OCO5)ncnc3c2)CC1 [Saracatinib] + O=C(CCCCCCC(=O)Nc1ccccc1)NO [Vorinostat] (partner 1 µM)

1: 0.279; 2: 0.63

---

# System: NCI-H596
# method description: relative viability (nuclei count vs DMSO), 5 days (fraction); higher = more cells survive
# test settings: first compound 0.03162 µM
Assign relative viability to each entry below.
Give bare numbers.

1) Cc1cn(-c2cc(NC(=O)c3ccc(C)c(Nc4nccc(-c5cccnc5)n4)c3)cc(C(F)(F)F)c2)cn1 [Nilotinib] + CS(=O)(=O)CCNCc1ccc(-c2ccc3ncnc(Nc4ccc(OCc5cccc(F)c5)c(Cl)c4)c3c2)o1 [Lapatinib] (partner 2 µM); 0.984
2) Cc1cn(-c2cc(NC(=O)c3ccc(C)c(Nc4nccc(-c5cccnc5)n4)c3)cc(C(F)(F)F)c2)cn1 [Nilotinib] + CC1(C)CCC(c2ccc(Cl)cc2)=C(CN2CCN(c3ccc(C(=O)NS(=O)(=O)c4ccc(N[C@H](CCN5CCOCC5)CSc5ccccc5)c(S(=O)(=O)C(F)(F)F)c4)cc3)CC2)C1 [Navitoclax] (partner 0.5 µM); 0.673
3) Cc1cn(-c2cc(NC(=O)c3ccc(C)c(Nc4nccc(-c5cccnc5)n4)c3)cc(C(F)(F)F)c2)cn1 [Nilotinib] + Nc1nc2[nH]cc(CCc3ccc(C(=O)N[C@@H](CCC(=O)O)C(=O)O)cc3)c2c(=O)[nH]1 [Pemetrexed] (partner 0.2 µM); 0.513
4) Cc1cn(-c2cc(NC(=O)c3ccc(C)c(Nc4nccc(-c5cccnc5)n4)c3)cc(C(F)(F)F)c2)cn1 [Nilotinib] + Cc1nc(Nc2ncc(C(=O)Nc3c(C)cccc3Cl)s2)cc(N2CCN(CCO)CC2)n1 [Dasatinib] (partner 0.075 µM); 0.504

Hi there! I need relative viability for each item below, if you can.
1. Cc1cn(-c2cc(NC(=O)c3ccc(C)c(Nc4nccc(-c5cccnc5)n4)c3)cc(C(F)(F)F)c2)cn1 [Nilotinib] + Cc1cc(Nc2cc(N3CCN(C)CC3)nc(Sc3ccc(NC(=O)C4CC4)cc3)n2)n[nH]1 [Tozasertib] (partner 0.1 µM)
2. Cc1cn(-c2cc(NC(=O)c3ccc(C)c(Nc4nccc(-c5cccnc5)n4)c3)cc(C(F)(F)F)c2)cn1 [Nilotinib] + NC(=O)Nc1cc(-c2cccc(F)c2)sc1C(=O)N[C@H]1CCCNC1 [AZD7762] (partner 0.2 µM)

1: 0.619; 2: 1.13

---

# System: BEN
# method description: relative viability (nuclei count vs DMSO), 5 days (fraction); higher = more cells survive
# test settings: first compound 0.253 µM
value type: relative viability
One number for each entry.

These recorded examples may help you get a feel for the data.
1) Nc1cccc2c1CN(C1CCC(=O)NC1=O)C2=O (centres undefined) [Lenalidomide] + Cc1cc(Nc2cc(N3CCN(C)CC3)nc(Sc3ccc(NC(=O)C4CC4)cc3)n2)n[nH]1 [Tozasertib] (partner 0.1 µM); 0.594
2) Nc1cccc2c1CN(C1CCC(=O)NC1=O)C2=O (centres undefined) [Lenalidomide] + O=C(CCCCCCC(=O)Nc1ccccc1)NO [Vorinostat] (partner 1 µM); 0.559
3) Nc1cccc2c1CN(C1CCC(=O)NC1=O)C2=O (centres undefined) [Lenalidomide] + Cc1nc(Nc2ncc(C(=O)Nc3c(C)cccc3Cl)s2)cc(N2CCN(CCO)CC2)n1 [Dasatinib] (partner 0.075 µM); 0.385

Could you now consider this next compound?
Please supply the value of reported relative viability for the item Nc1cccc2c1CN(C1CCC(=O)NC1=O)C2=O (centres undefined) [Lenalidomide] + CS(=O)(=O)CCNCc1ccc(-c2ccc3ncnc(Nc4ccc(OCc5cccc(F)c5)c(Cl)c4)c3c2)o1 [Lapatinib] (partner 2 µM)
0.898

---

# Test system: NCI-H1734
# method description: relative viability (nuclei count vs DMSO), 5 days (fraction); higher = more cells survive
# test settings: first compound 2 µM
value type: relative viability
Give bare numbers.

1. CN1CCN(CCOc2cc(OC3CCOCC3)c3c(Nc4c(Cl)ccc5c4OCO5)ncnc3c2)CC1 [Saracatinib] + CC(C)C[C@H](NC(=O)[C@H](Cc1ccccc1)NC(=O)c1cnccn1)B(O)O [Bortezomib] (partner 0.002 µM); 0.842

Hi there! I need relative viability for each item below, if you can.
1. Cc1csc(=NC2CCCCC2)n1/N=C/c1ccc(O)c(O)c1O [MIM1] + N=C(N)NC(=N)NCCc1ccccc1 [Phenformin] (partner 250 µM)
2. CN1CCN(CCOc2cc(OC3CCOCC3)c3c(Nc4c(Cl)ccc5c4OCO5)ncnc3c2)CC1 [Saracatinib] + NC(=O)Nc1cc(-c2cccc(F)c2)sc1C(=O)N[C@H]1CCCNC1 [AZD7762] (partner 0.2 µM)
3. CN1CCN(CCOc2cc(OC3CCOCC3)c3c(Nc4c(Cl)ccc5c4OCO5)ncnc3c2)CC1 [Saracatinib] + CC(=O)c1c(C)c2cnc(Nc3ccc(N4CCNCC4)cn3)nc2n(C2CCCC2)c1=O [Palbociclib] (partner 0.5 µM)
4. Cc1csc(=NC2CCCCC2)n1/N=C/c1ccc(O)c(O)c1O [MIM1] + CC(=O)Nc1cccc(-n2c(=O)n(C3CC3)c(=O)c3c(Nc4ccc(I)cc4F)n(C)c(=O)c(C)c32)c1 [Trametinib] (partner 0.02 µM)

1. 0.443
2. 0.566
3. 0.329
4. 0.607

---

# Tested on: NCI-H727
# method description: relative viability (nuclei count vs DMSO), 5 days (fraction); higher = more cells survive
# test settings: first compound 0.2 µM
Assign relative viability to each entry below.
One number for each entry.

These recorded examples may help you get a feel for the data.
1) CN1CCN(CCOc2cc(OC3CCOCC3)c3c(Nc4c(Cl)ccc5c4OCO5)ncnc3c2)CC1 [Saracatinib] + Nc1ncn([C@H]2C[C@H](O)[C@@H](CO)O2)c(=O)n1 [Decitabine] (partner 2 µM); 0.894
2) CN1CCN(CCOc2cc(OC3CCOCC3)c3c(Nc4c(Cl)ccc5c4OCO5)ncnc3c2)CC1 [Saracatinib] + O=C(CCCCCCC(=O)Nc1ccccc1)NO [Vorinostat] (partner 1 µM); 0.996
3) CN1CCN(CCOc2cc(OC3CCOCC3)c3c(Nc4c(Cl)ccc5c4OCO5)ncnc3c2)CC1 [Saracatinib] + N=C(N)NC(=N)NCCc1ccccc1 [Phenformin] (partner 250 µM); 0.238
4) Cc1csc(=NC2CCCCC2)n1/N=C/c1ccc(O)c(O)c1O [MIM1] + CS(=O)(=O)N1CCN(Cc2cc3nc(-c4cccc5[nH]ncc45)nc(N4CCOCC4)c3s2)CC1 [Pictilisib] (partner 1 µM); 0.415
5) Cc1csc(=NC2CCCCC2)n1/N=C/c1ccc(O)c(O)c1O [MIM1] + CS(=O)(=O)CCNCc1ccc(-c2ccc3ncnc(Nc4ccc(OCc5cccc(F)c5)c(Cl)c4)c3c2)o1 [Lapatinib] (partner 2 µM); 0.852
6) CCNC(=O)c1noc(-c2cc(C(C)C)c(O)cc2O)c1-c1ccc(CN2CCOCC2)cc1 [Luminespib] + N=C(N)NC(=N)NCCc1ccccc1 [Phenformin] (partner 250 µM); 0.175
7) Cc1csc(=NC2CCCCC2)n1/N=C/c1ccc(O)c(O)c1O [MIM1] + Cc1cc(Nc2cc(N3CCN(C)CC3)nc(Sc3ccc(NC(=O)C4CC4)cc3)n2)n[nH]1 [Tozasertib] (partner 0.1 µM); 0.513
8) Cc1csc(=NC2CCCCC2)n1/N=C/c1ccc(O)c(O)c1O [MIM1] + N=C(N)NC(=N)NCCc1ccccc1 [Phenformin] (partner 250 µM); 0.513
9) Cc1csc(=NC2CCCCC2)n1/N=C/c1ccc(O)c(O)c1O [MIM1] + Cc1nc(NC(=O)N2CCC[C@H]2C(N)=O)sc1-c1ccnc(C(C)(C)C(F)(F)F)c1 [Alpelisib] (partner 2 µM); 0.595
10) Cc1csc(=NC2CCCCC2)n1/N=C/c1ccc(O)c(O)c1O [MIM1] + CC(=O)c1c(C)c2cnc(Nc3ccc(N4CCNCC4)cn3)nc2n(C2CCCC2)c1=O [Palbociclib] (partner 0.5 µM); 0.634

Hi there! I need relative viability for each item below, if you can.
1. CCNC(=O)c1noc(-c2cc(C(C)C)c(O)cc2O)c1-c1ccc(CN2CCOCC2)cc1 [Luminespib] + C[C@]1(O)C[C@@H](c2nc(-c3ccc4ccc(-c5ccccc5)nc4c3)c3c(N)nccn32)C1 [Linsitinib] (partner 1 µM)
2. Cc1csc(=NC2CCCCC2)n1/N=C/c1ccc(O)c(O)c1O [MIM1] + COc1cccc2cc(-c3nc([C@H]4CC[C@H](C(=O)O)CC4)n4ncnc(N)c34)[nH]c12 [OSI-027] (partner 0.5 µM)
3. Cc1csc(=NC2CCCCC2)n1/N=C/c1ccc(O)c(O)c1O [MIM1] + CC1(C)CCC(c2ccc(Cl)cc2)=C(CN2CCN(c3ccc(C(=O)NS(=O)(=O)c4ccc(N[C@H](CCN5CCOCC5)CSc5ccccc5)c(S(=O)(=O)C(F)(F)F)c4)cc3)CC2)C1 [Navitoclax] (partner 0.5 µM)
4. CN1CCN(CCOc2cc(OC3CCOCC3)c3c(Nc4c(Cl)ccc5c4OCO5)ncnc3c2)CC1 [Saracatinib] + Cc1nc(NC(=O)N2CCC[C@H]2C(N)=O)sc1-c1ccnc(C(C)(C)C(F)(F)F)c1 [Alpelisib] (partner 2 µM)
5. CCNC(=O)c1noc(-c2cc(C(C)C)c(O)cc2O)c1-c1ccc(CN2CCOCC2)cc1 [Luminespib] + CC(C)C[C@H](NC(=O)[C@H](Cc1ccccc1)NC(=O)c1cnccn1)B(O)O [Bortezomib] (partner 0.002 µM)
6. CN1CCN(CCOc2cc(OC3CCOCC3)c3c(Nc4c(Cl)ccc5c4OCO5)ncnc3c2)CC1 [Saracatinib] + COc1cccc2cc(-c3nc([C@H]4CC[C@H](C(=O)O)CC4)n4ncnc(N)c34)[nH]c12 [OSI-027] (partner 0.5 µM)

[0.211, 0.619, 0.441, 0.461, 0.215, 0.463]

Hi there! I need relative viability for each item below, if you can.
1. CN1CCN(CCOc2cc(OC3CCOCC3)c3c(Nc4c(Cl)ccc5c4OCO5)ncnc3c2)CC1 [Saracatinib] + CC(=O)Nc1cccc(-n2c(=O)n(C3CC3)c(=O)c3c(Nc4ccc(I)cc4F)n(C)c(=O)c(C)c32)c1 [Trametinib] (partner 0.02 µM)
2. Cc1csc(=NC2CCCCC2)n1/N=C/c1ccc(O)c(O)c1O [MIM1] + COc1cc2c(Oc3ccc(NC(=O)C4(C(=O)Nc5ccc(F)cc5)CC4)cc3F)ccnc2cc1OCCCN1CCOCC1 [Foretinib] (partner 0.25 µM)

1. 0.402
2. 0.948
